Answer each item with its documented % of ABTS• reduction ± SD.
- measurementProtocol: ABTS free radical scavenging assay
- recordedConditions: 75 µM, 60 min
Don't forget the unit after the value.

-- ask Need % of ABTS• reduction ± SD of Cc1c(C)c2c(c(C)c1O)CCC(C)(C(=O)O)O2 (stereo not drawn) [Trolox, reference compound] , thanks.
-- reply 100%

-- ask Need % of ABTS• reduction ± SD, item O=c1[nH]c2c(OCCNCC3CCN(Cc4ccccc4)CC3)cccc2n1Cc1ccccc1 [Compound 17]
-- reply 27±1%

-- ask So what does the record say about % of ABTS• reduction ± SD for O=S(=O)(c1ccccc1)N1CCc2c(OCCNCCCC3CCN(Cc4ccccc4)CC3)cccc21 [Compound 16] ?
-- reply 11±3%

-- ask Quick check: % of ABTS• reduction ± SD of O=c1[nH]c2c(OCCNCCCC3CCN(Cc4ccccc4)CC3)cccc2n1Cc1ccccc1 [Compound 19] ?
-- reply 30±2%

-- ask I am curious: what % of ABTS• reduction ± SD value has been reported for O=S(=O)(c1ccccc1)n1ccc2c(OCCNCCCC3CCN(Cc4ccccc4)CC3)cccc21 [Compound 14] ?
-- reply 21±0%

-- ask Name the reported % of ABTS• reduction ± SD value associated with the compound O=S(=O)(c1ccccc1)N1CCc2c(OCCNCC3CCN(Cc4ccccc4)CC3)cccc21 [Compound 15]
-- reply 15±1%

-- ask Entry O=S(=O)(c1ccccc1)n1ccc2c(OCCNCCC3CCN(Cc4ccccc4)CC3)cccc21 [Compound 13] has what % of ABTS• reduction ± SD?
-- reply 13±1%

-- ask Given O=c1[nH]c2c(OCCNCCC3CCN(Cc4ccccc4)CC3)cccc2n1Cc1ccccc1 [Compound 18] , state its recorded % of ABTS• reduction ± SD.
-- reply 36±2%

-- ask Value lookup for % of ABTS• reduction ± SD; key = O=S(=O)(c1ccccc1)n1ccc2c(OCCNCC3CCN(Cc4ccccc4)CC3)cccc21 [Compound 12]
-- reply 24±1%
